Entry source: patent US8809377B2

Biological target: USP9X-UCH (Homo sapiens, UniProt Q93008)
Sequence (Q93008 1557-1956 limits assumed): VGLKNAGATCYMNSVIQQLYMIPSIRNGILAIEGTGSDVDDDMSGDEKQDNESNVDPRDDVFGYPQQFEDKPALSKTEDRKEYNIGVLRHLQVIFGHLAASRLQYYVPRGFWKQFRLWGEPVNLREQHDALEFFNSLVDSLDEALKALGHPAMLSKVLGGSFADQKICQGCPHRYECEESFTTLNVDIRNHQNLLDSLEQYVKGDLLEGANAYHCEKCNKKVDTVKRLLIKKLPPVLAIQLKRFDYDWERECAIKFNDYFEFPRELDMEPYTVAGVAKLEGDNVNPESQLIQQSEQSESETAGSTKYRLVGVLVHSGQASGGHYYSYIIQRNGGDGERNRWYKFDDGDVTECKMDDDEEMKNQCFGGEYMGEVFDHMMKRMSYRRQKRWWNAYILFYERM
Assay type: biochemical
Settings: isolated Usp9x-UCH domain enzyme preparation
RECORDED_METRIC: AMC Assay on USP9X-UCH Activity relative to WP1130

MOLECULE | RESULT
CCC[C@H](NC(=O)/C(C#N)=C/c1ncc[nH]1)c1ccccc1 | Less sensitive
CCCC(NC(=O)/C(C#N)=C/c1cccc(F)n1)c1ccc(OCCN2CCOCC2)cc1 (stereo not drawn) | No inhibition
CCCC(NC(=O)/C(C#N)=C/c1cccc(F)n1)c1ccc(OCCN(CC)CC)cc1 (stereo not drawn) | No inhibition
CCCC(NC(=O)/C(C#N)=C/c1cccc(Br)n1)c1ccc(OCCN(CC)CC)cc1 (stereo not drawn) | Same
CCC[C@H](NC(=O)/C(C#N)=C/c1cccc(Cl)n1)c1ccccc1 | Inconclusive
CCC[C@H](NC(=O)/C(C#N)=C/c1cccc(F)n1)c1ccccc1 | Less sensitive
CCCC(NC(=O)/C(C#N)=C/c1cccc(Br)n1)c1ccc(OCCN(C)C)cc1 (stereo not drawn) | Inconclusive
CCCC(NC(=O)/C(C#N)=C/c1cccc(F)n1)c1ccc(OCCN2CCCC2)cc1 (stereo not drawn) | No inhibition
CCCC(NC(=O)/C(C#N)=C/c1ncc[nH]1)c1ccc(OCCN(C)C)cc1 (stereo not drawn) | Inconclusive
